# TEST DESCRIPTION: Antiproliferative activity against human JHH7 after 72 hrs by CellTiter Glo assay
# Format: functional
PROPERTY MEASURED: pIC50
One number for each entry, as −log10 of the molar value.

Examples with their reported pIC50 follow.
CC[C@]1(O)C[C@H]2CN(CCc3c([nH]c4ccccc34)[C@@](C(=O)OC)(c3cc4c(cc3OC)N(C=O)[C@H]3[C@@](O)(C(=O)OC)[C@H](OC(C)=O)[C@]5(CC)C=CCN6CC[C@]43[C@@H]65)C2)C1 [VINCRISTINE]	7.55
COc1ccc2c(c1N)C(=O)O[C@@H]2[C@H]1c2c(cc3c(c2OC)OCO3)CCN1C	6.50

Lab note: measured pIC50 of C/C(=C\c1csc(C)n1)[C@@H]1C[C@@H]2O[C@]2(C)CCC[C@H](C)[C@H](O)[C@@H](C)C(=O)C(C)(C)[C@@H](O)CC(=O)O1 [PATUPILONE] was 7.83

----------
# Test system: SNU-423
# TEST DESCRIPTION: Antiproliferative activity against human SNU423 after 72 hrs by CellTiter Glo assay
# Format: functional, cell-based
# CONDITION SET: SNU-423, 72 h
PROPERTY MEASURED: pIC50
Give bare numbers, as −log10 of the molar value.

Batch request: pIC50 per item, same order as input.
1. CC[C@]1(O)C[C@H]2CN(CCc3c([nH]c4ccccc34)[C@@](C(=O)OC)(c3cc4c(cc3OC)N(C=O)[C@H]3[C@@](O)(C(=O)OC)[C@H](OC(C)=O)[C@]5(CC)C=CCN6CC[C@]43[C@@H]65)C2)C1
2. CC(=O)O[C@@]12CO[C@@H]1C[C@H](O)[C@@]1(C)C(=O)[C@H](O)C3=C(C)[C@@H](OC(=O)[C@H](O)[C@@H](NC(=O)OC(C)(C)C)c4ccccc4)C[C@@](O)([C@@H](OC(=O)c4ccccc4)[C@H]21)C3(C)C.O.O.O
3. C/C(=C\c1csc(C)n1)[C@@H]1C[C@@H]2O[C@]2(C)CCC[C@H](C)[C@H](O)[C@@H](C)C(=O)C(C)(C)[C@@H](O)CC(=O)O1
4. COc1ccc2c(c1N)C(=O)O[C@@H]2[C@H]1c2c(cc3c(c2OC)OCO3)CCN1C

1: 7.74; 2: 7.97; 3: 7.99; 4: 6.65

----------
# System: SMMC-7721
# TEST DESCRIPTION: Antiproliferative activity against human SMMC7721 after 72 hrs by CellTiter Glo assay
# Type: functional, cell-based
# CONDITION SET: SMMC-7721, 72 h
PROPERTY MEASURED: pIC50
One number for each entry, as −log10 of the molar value.

# example entries with known answers
C/C(=C\c1csc(C)n1)[C@@H]1C[C@@H]2O[C@]2(C)CCC[C@H](C)[C@H](O)[C@@H](C)C(=O)C(C)(C)[C@@H](O)CC(=O)O1	8.64
COc1ccc2c(c1N)C(=O)O[C@@H]2[C@H]1c2c(cc3c(c2OC)OCO3)CCN1C	6.96
CC(=O)O[C@@]12CO[C@@H]1C[C@H](O)[C@@]1(C)C(=O)[C@H](O)C3=C(C)[C@@H](OC(=O)[C@H](O)[C@@H](NC(=O)OC(C)(C)C)c4ccccc4)C[C@@](O)([C@@H](OC(=O)c4ccccc4)[C@H]21)C3(C)C.O.O.O	8.70

Attention now shifts to the item below.
Given item "CC[C@]1(O)C[C@H]2CN(CCc3c([nH]c4ccccc34)[C@@](C(=O)OC)(c3cc4c(cc3OC)N(C=O)[C@H]3[C@@](O)(C(=O)OC)[C@H](OC(C)=O)[C@]5(CC)C=CCN6CC[C@]43[C@@H]65)C2)C1" , the value recorded as its pIC50 is 8.19
